Target: assembled tsyn (core aggregation domain of α-synuclein, amino acids 31-109) (Homo sapiens, UniProt P37840)
Construct: The core aggregation domain of α-synuclein (amino acids 31-109) was expressed with an N-terminal polyhistidine tag; polyhistidine (N); made in house; host or cells: E. coli
Assay: Fluorescence assay of disruption of assembled tsyn (thioflavine T / primulin)
Type: biochemical
Details: assembled tsyn, thioflavine T 0.2 μM; read-out: P50 (mean), effect of fluorophore concentration
In this section we review reported IC50 values for a set of molecules.
readout label: IC50 (µM)

molecule: CN(C)c1ccc2nc3ccc(N(C)C)cc3[s+]c2c1 [MTC, methyl-thioninium chloride]
measured: 11.6
//
molecule: CCN(CC)c1ccc2nc3ccc(N(CC)CC)cc3[s+]c2c1 [ETC, Ethyl-thioninium chloride]
measured: 3.2

Data provenance is patent US8263589B2.
